Data origin: patent US20230365659A1

Listing of recorded koff by entry.
molecular target: T1, SARS-CoV2 spike RBD variant strain (SRD-C52H3, Acro Biosystems, E484K) (SARS-CoV-2, UniProt P0DTC2 319-537); experiment: BLI (Octet), biotinylated RBD on SA sensor, VHH as analyte, 1:1 fit
T1 construct: domain: RBD
API: value field is a number in s⁻¹; no unit string.

>>> endpoint_result("Bacillus subtilis-derived VHH-COVE2 (VHH) VHH: AEVQLVESGGGLVQAGDSLRLSCAATRRTSSTYAMGWFRQAPGKGLEWVAAISWDGGRTYYAESVKGRFTISRDNAKNTVYLQMNSLKPEDTAVYYCYSFGGSDFLMDYWGQGTQVTVSSGGGSHHHHHH")
0.00365
>>> endpoint_result("Bacillus subtilis-derived VHH-COVE7 (VHH) VHH: EVQLVESGGGLVQAGDSLRLSCTASGRTFSSCAMGWFRQAPGKEREFVAAISRGGGSTSYADSVKGRFTISKDRARNTAYLEMNSLKPEDTAIYYCYAVFPSGGDYWGQGTQVTVSS")
0.00707
>>> endpoint_result("Bacillus subtilis-derived VHH-COVE5 (VHH) VHH: EVQLVESGGGLVQAGGSLRLSCTASDQIFDNYNMAWFRQSPGKEREFVAALSWGDSNTGYADSVKGRFTISRDNAKNTVYLQMNSLKPEDTAVYYCYAVTWLRGDYWGQGTQVTVSS")
0.0246
>>> endpoint_result("Bacillus subtilis-derived VHH-COVE9 (VHH) VHH: EVQLVESGGGLVQPGGSLRLSCAASGTIFSTNAMSWYRQAPGKQRELVAAITSGGNTNYADSVKGRFTISRDNAKNTVYLQMNSLKPEDTAVYYCNAPGVVTGSYDVRNYWGQGTQVTVSS")
0.00307

# input for lookup
Please give the measured koff for this binder: Bacillus subtilis-derived VHH-COVE8 (VHH) VHH: EVQLVESGGGLVQPGGSLTLSCAASGQTFSSYNMAWFRQSPGKEREFVATISWGGGSTGYADSVKGRFTISRDHAKNTVYLQMKDLKPEDTGAYYCYLVGLFGIQASDYWGQGTQVTVSS
0.0147
